Tested on: NCI-H460 lung
Assay: NCI tumour cell line growth inhibition, 48 h
PROPERTY_MEASURED: TGI

Q: What does the record list as TGI for CCN(CC)Cc1nc2sc3c(c2c(=O)n1-c1ccccc1)CCCC3 ?
Ans: 40.8 µM

Q: What does the record list as TGI for Cc1nc2c(nc1C)C(=O)c1cc(O)ccc1C2=O ?
Ans: > 100 µM

Q: What does the record list as TGI for O=C(Nc1sccc1S(=O)(=O)c1ccccc1)c1cccnc1 ?
Ans: > 100 µM

Q: What does the record list as TGI for Cc1ccc(C(=O)OC[C@H]2CC[C@@H](n3cc(N(C)C4CCCCC4)c(=O)[nH]c3=O)O2)cc1 ?
Ans: > 100 µM

Q: What does the record list as TGI for C=C1CC2(OC1=O)C(=O)N(CCCCCCCN1C(=O)C3(CC(=C)C(=O)O3)c3ccccc31)c1ccccc12 (stereo not drawn) ?
Ans: 12.3 µM

Q: What does the record list as TGI for Cn1c(=O)c2c(nc(NCCCCl)n2CC(=O)O)n(C)c1=O ?
Ans: > 100 µM

Q: What does the record list as TGI for CC(C)/C(Cl)=N/OC(=O)Nc1ccc(F)c(Cl)c1 ?
Ans: 35.4 µM

Q: What does the record list as TGI for COc1ccc2c(c1)[nH]c(=O)c1c3cc(C)c(C)cc3cn21 ?
Ans: 1.02 µM

Q: What does the record list as TGI for O=C(NCCN(CCNC(=O)c1cccc(=O)n1O)CCN(CCNC(=O)c1cccc(=O)n1O)CCNC(=O)c1cccc(=O)n1O)c1cccc(=O)n1O ?
Ans: > 100 µM

Q: What does the record list as TGI for CC(=O)NNc1nc(C)c(C(/C=C/c2ccc3c(c2)OCO3)=N/Nc2ccccc2)s1 ?
Ans: > 100 µM

Q: What does the record list as TGI for COc1cc(-c2nn(-c3ccc(NC(=O)c4ccc(Cl)c(Cl)c4)cc3)cc2-c2ccncc2)ccc1Cl ?
Ans: > 100 µM

Q: What does the record list as TGI for N#CCC(=O)Nc1cccc(C(F)(F)F)c1 ?
Ans: > 100 µM

Q: What does the record list as TGI for CCOC(C[Se]CC(OCC)OCC)OCC ?
Ans: > 100 µM

Q: What does the record list as TGI for COc1ccc(N=C2CSc3nnc(-c4cc(F)c(Cl)cc4Cl)n3N2)cc1 ?
Ans: 12.3 µM

Q: What does the record list as TGI for CSc1c(C(=O)Nc2ccccc2)c(N)nn1-c1ccccc1 ?
Ans: > 100 µM

Q: What does the record list as TGI for CC[C@H](C)N(CCN)C(=O)c1cc2ccccc2c(-c2ccccc2Cl)n1 ?
Ans: 27.1 µM

Q: What does the record list as TGI for NCCC(N)C(=O)O (stereo not drawn) ?
Ans: > 100 µM

Q: What does the record list as TGI for O=C1CC(O)C=C1Nc1ccc(Cl)cc1 (stereo not drawn) ?
Ans: > 100 µM

Q: What does the record list as TGI for CC(=O)OC(Cc1cc(C=C(C(F)(F)F)C(F)(F)F)cc(C)n1)(C(F)(F)F)C(F)(F)F ?
Ans: 5.09 µM

Q: What does the record list as TGI for CCC(C)[C@H](NC(=O)N[C@H](C)c1ccccc1)C(=O)OC (stereo partly drawn) ?
Ans: > 100 µM

Q: What does the record list as TGI for CCCC/C=C1\CCC(CN2CCCCC2)C1=O (stereo not drawn) ?
Ans: 55.5 µM

Q: What does the record list as TGI for COc1nc(N(C)O)nc(N(C)O)n1 ?
Ans: 8.62 µM

Q: What does the record list as TGI for CCC[CH2][Sn-]([CH2]CCC)([CH2]CCC)[O]c1cc(Cl)c(Cl)cc1Cl ?
Ans: 0.344 µM

* * *

System: HCT-15 colon
Assay: NCI tumour cell line growth inhibition, 48 h
PROPERTY_MEASURED: TGI

Q: Field: TGI (HCT-15 colon). Entry: O=c1c2ccccc2[nH]c(=S)n1-c1ccc(Br)cc1
Ans: > 100 µM

Q: Field: TGI (HCT-15 colon). Entry: Cc1cc2c(cc1Cl)Sc1nnc(Nc3ccccc3)n1S2(=O)=O
Ans: 28.9 µM

Q: Field: TGI (HCT-15 colon). Entry: COC(=O)C1CC2(CC3=C1CCCC3)OCCO2 (stereo not given)
Ans: > 100 µM

Q: Field: TGI (HCT-15 colon). Entry: COc1ccc2c(c1)/C(=C\c1c(C)nc3sc(C)cn13)C(=O)N2C
Ans: 40.3 µM

Q: Field: TGI (HCT-15 colon). Entry: Oc1ccc(Cl)cc1C1=N/C(=N\CN2CCN(C/N=C3/N=C(c4cc(Cl)ccc4O)CC(c4ccccc4)N3)CC2)NC(c2ccccc2)C1 (stereo not given)
Ans: > 100 µM

Q: Field: TGI (HCT-15 colon). Entry: CC(=O)C(C(C)=O)=C1CCCC(O)O1 (stereo not given)
Ans: > 100 µM

Q: Field: TGI (HCT-15 colon). Entry: CCCC/C=C1\CCC(CN2CCCCC2)C1=O (stereo not given)
Ans: 20.6 µM

Q: Field: TGI (HCT-15 colon). Entry: C=CCn1c2c(c3ccccc3c1=O)C(=O)c1ccccc1-2
Ans: > 100 µM

Q: Field: TGI (HCT-15 colon). Entry: Cn1c(=O)nc2n(-c3ccc(Cl)cc3)c3ccc(Cl)cc3nc-2c1=O
Ans: 26.5 µM

Q: Field: TGI (HCT-15 colon). Entry: COc1ccc(N2C=Nn3c(nc4sc(C)c(C)c4c3=O)C2)cc1
Ans: > 100 µM

* * *

Test system: HT29 colon
Experiment: NCI tumour cell line growth inhibition, 48 h
Would you mind telling me the reported TGI of each entry?
The reply should contain only the number, in µM.

Q: What does the record list as TGI for COc1cc(/C(C#N)=C/c2ccc3c(c2OC)OCO3)cc2c1OCO2 ?
Ans: 1.04

Q: What does the record list as TGI for COc1ccc2cc(C(=O)/C=C/c3cc(OC)c(OC)c(OC)c3)ccc2c1 ?
Ans: 19.7

Q: What does the record list as TGI for CCOC(=O)/C(=C\NCC(O)c1ccccc1)c1nc2ccccc2[nH]1 (stereo unspecified) ?
Ans: 56.7

* * *

Test system: HCT-116 colon
Assay: NCI tumour cell line growth inhibition, 48 h
PROPERTY_MEASURED: GI50

Q: What does the record list as GI50 for COc1ccc(Cl)cc1Nc1nc(C(F)(F)F)ccc1C(=O)N/N=C/c1c(Cl)cccc1Cl ?
Ans: 3.3 µM

Q: What does the record list as GI50 for N#Cc1c(Sc2ccccc2N)cccc1Sc1ccccc1N ?
Ans: 71.9 µM

Q: What does the record list as GI50 for COc1nc(N(C)O)nc(N(C)O)n1 ?
Ans: 0.402 µM

Q: What does the record list as GI50 for CNC(=O)c1cc(OC2CCC(NC(=O)Nc3ccc(Cl)c(C(F)(F)F)c3)CC2)ccn1 (stereo unspecified) ?
Ans: 4.35 µM

Q: What does the record list as GI50 for CNC(P(=O)([O-])[O-])P(=O)([O-])[O-].N.N.[Pt+2] ?
Ans: > 100 µM

Q: What does the record list as GI50 for COc1cc2c(cc1OC)C(=O)/C(=C/c1cccc(OCC(=O)c3ccccc3)c1)C2 ?
Ans: 5.44 µM

* * *

Would you mind telling me the reported TGI of each entry?
Tested on: OVCAR-5 ovarian
Assay: NCI tumour cell line growth inhibition, 48 h
The reply should contain only the number, in µM.

Q: What does the record list as TGI for CCOC(=O)C(=O)Nc1nc2c(s1)C(=O)c1ccccc1C2=O ?
Ans: 42.5

Q: What does the record list as TGI for CC1=C(C(=O)Nc2c(C)cccc2C)C(c2ccc3c(c2)OCO3)C(C(=O)Nc2c(C)cccc2C)=C(C)N1 ?
Ans: 33.7

Q: What does the record list as TGI for Cc1ccc2c(=O)cc(-c3csc4ccccc34)[nH]c2n1 ?
Ans: 6.47

Q: What does the record list as TGI for CNC(=O)c1cc(OC2CCC(NC(=O)Nc3ccc(Cl)c(C(F)(F)F)c3)CC2)ccn1 (stereo not given) ?
Ans: 31.1

* * *

System: SK-MEL-28 melanoma
Assay: NCI tumour cell line growth inhibition, 48 h
PROPERTY_MEASURED: TGI

Q: What does the record list as TGI for COc1cc(C2C=C(c3cccc(NC(C)=O)c3)Nc3ncnn32)cc(OC)c1OC (configuration not stated) ?
Ans: > 100 µM

Q: What does the record list as TGI for CCOC(C[Se]CC(OCC)OCC)OCC ?
Ans: > 100 µM

Q: What does the record list as TGI for CC(=O)n1c(COS(C)(=O)=O)nc2ccccc21 ?
Ans: > 100 µM

Q: What does the record list as TGI for COc1cc2c3c(n(C)c(=O)c2cc1OC)-c1cc2c(cc1/C3=C\CCCCCN)OCO2 ?
Ans: > 100 µM

Q: What does the record list as TGI for COc1cc2c(cc1OC)C(=O)/C(=C/c1cccc(OCC(=O)c3ccccc3)c1)C2 ?
Ans: > 100 µM

Q: What does the record list as TGI for COC1=CC(=O)c2ccccc2C1(CCC=C(C)C)C1=NC(C)(C)CO1 (configuration not stated) ?
Ans: > 100 µM

Q: What does the record list as TGI for O=C(c1ccc(Cl)cc1)c1ccc(OCC(=O)N2CCN(c3ccccc3)CC2)cc1 ?
Ans: > 100 µM

Q: What does the record list as TGI for COc1ccc(N=C2CSc3nnc(-c4cc(F)c(Cl)cc4Cl)n3N2)cc1 ?
Ans: 21.4 µM

Q: What does the record list as TGI for O=C(CSc1nc2ccccc2[nH]1)Nc1ccc(-c2nc3ccccc3s2)c(Cl)c1 ?
Ans: 7.59 µM

Q: What does the record list as TGI for CCOC(=O)c1ccc(NC(=O)N2CC(C)OC(C)C2)cc1 (configuration not stated) ?
Ans: > 100 µM

Q: What does the record list as TGI for O=C1NCc2ccc3c(-c4cccc(Cl)c4)c[nH]c3c21 ?
Ans: > 50 µM

Q: What does the record list as TGI for CC[C@H](C)N(CCN)C(=O)c1cc2ccccc2c(-c2ccccc2Cl)n1 ?
Ans: 27 µM

Q: What does the record list as TGI for COc1ccc2[nH]c(C(=O)N3CC(CCl)c4ccc(N)cc43)cc2c1 (configuration not stated) ?
Ans: > 31.6 µM

Q: What does the record list as TGI for O=C(c1ccccc1)C(C(=O)c1ccccc1)C1(O)C(=O)c2ccccc2C1=O ?
Ans: > 100 µM

Q: What does the record list as TGI for COc1ccc2c(c1)O[C@@H]1C(O)Oc3cc(OC)c(OC)cc3[C@]1(O)C2=O (some centres not stated) ?
Ans: > 100 µM

Q: What does the record list as TGI for CCN(CC)CCOc1nc2ccc(OC)cc2c2c1-c1ccc(OC)cc1C2=O ?
Ans: 3.24 µM

Q: What does the record list as TGI for Cc1ccc(CNc2c3ccccc3nc3ccccc23)cc1 ?
Ans: 4.16 µM

Q: What does the record list as TGI for CCOC(=O)C(=O)Nc1nc2c(s1)C(=O)c1ccccc1C2=O ?
Ans: 27.6 µM

Q: What does the record list as TGI for Cc1cc2c(c(C#N)c1C)NC(=O)CCC2=O ?
Ans: > 100 µM

Q: What does the record list as TGI for CC(=O)O[C@H]1CC[C@@]2(C)C(=CC[C@@H]3[C@@H]2CC[C@]2(C)C(c4cccnc4)=CC[C@@H]32)C1 ?
Ans: > 100 µM

Q: What does the record list as TGI for CC(=O)c1ccc(N=Nc2ccc3nonc3c2N)cc1 ?
Ans: > 100 µM

Q: What does the record list as TGI for CC(=O)C1CC(C)=CCC12C(=O)Nc1ccccc12 (configuration not stated) ?
Ans: > 100 µM
